Source of measurements: ChEMBL document CHEMBL3046330

Would you mind telling me the reported MIC of each entry?
# System: Candida albicans
# ASSAY_REMARKS: Antifungal activity against Candida albicans ATCC 90028 after 24 hr by NCCLS broth microdilution method
# Assay type: functional
# DETAILS: ATCC 90028, 24 h
One number for each entry, in µg/mL.

Previously resolved entries follow.
O=C(N/N=C/c1ccccc1)c1ccc(F)cc1 = 500
O=C(N/N=C/c1ccco1)c1ccc(F)cc1 = 500
CC(=O)N1N=C(c2ccc(F)cc2)OC1c1ccccc1 (configuration not stated) = 1000
O=C(N/N=C/c1ccc(O)cc1)c1ccc(F)cc1 = 500
CC(=O)N1N=C(c2ccc(F)cc2)OC1c1ccc(Br)cc1 (configuration not stated) = 1000
COc1ccc(/C=N/NC(=O)c2ccc(F)cc2)cc1O = 500
CC(=O)N1N=C(c2ccc(F)cc2)OC1c1ccc(N(C)C)cc1 (configuration not stated) = 500
COc1ccc(/C=N/NC(=O)c2ccc(F)cc2)cc1 = 500
CC(=O)N1CCN(c2ccc(OCC3COC(Cn4ccnc4)(c4ccc(Cl)cc4Cl)O3)cc2)CC1 (configuration not stated) = 62
CC(=O)N1N=C(c2ccc(F)cc2)OC1c1ccc(O)cc1 (configuration not stated) = 500

Please report MIC for every entry that follows.
1. CC(=O)N1N=C(c2ccc(F)cc2)OC1c1ccc(F)cc1 (configuration not stated)
2. CN(C)c1ccc(/C=N/NC(=O)c2ccc(F)cc2)cc1

### Response
[500, 500]

Please report MIC for every entry that follows.
1. CC(=O)N1N=C(c2ccc(F)cc2)OC1/C=C/c1ccc(N(C)C)cc1 (configuration not stated)
2. COc1ccc(C2OC(c3ccc(F)cc3)=NN2C(C)=O)cc1O (configuration not stated)
3. CN(C)c1ccc(/C=C/C=N/NC(=O)c2ccc(F)cc2)cc1
4. CC(=O)N1N=C(c2ccc(F)cc2)OC1c1ccco1 (configuration not stated)

### Response
1: 500; 2: 500; 3: 500; 4: 1000
